tested on: HCoV-229E; assay: Anti-coronavirus cytoprotection assay (XTT, reduction of viral cytopathic effect) in MRC-5 cells; details: Human coronavirus 229E, MRC5, 144 h, read-out: EC50 (effective concentration that reduced 50% of viral cytopathic effect), HCoV-229E in MRC-5 cells, 6 days, triplicate data points
Could you please report measured EC50 for the items listed next?

Query :: May I ask what EC50 has been recorded for CCC(CC)COC(=O)[C@H](C)N[P@](=O)(OC[C@H]1O[C@@](C#N)(c2ccc3c(N)ncnn23)[C@H](O)[C@@H]1O)Oc1ccccc1 [Remdesivir (1), Remdesivir] ?
Result :: 0.067 µM

Query :: Look up EC50 for this compound: CCCCCCCCCCCCCC(=O)OC[C@@H]1O[C@H](n2ccc(N)nc2=O)CS1 [5′-O-(tetradecanoyl)3TC (7), 5′-O-(tetradecanoyl)3TC]
Result :: > 47.5 µM

Query :: Suppose we examine the compound C#C[C@]1(CO)O[C@@H](n2cnc3c(N)nc(F)nc32)C[C@@H]1O [EFdA (3), 4′-ethynyl-2-fluoro-2′-deoxyadenosine] ; what EC50 value has been reported?
Result :: > 55.3 µM

# credit: paper PMC7287735
